method description: Activity towards mouse FL5.12 cell line transfected with Bcl-XL in presence of gelatin
pEC50: −log10 of the molar value.
readout: pEC50

Solved entries:
CN(C)CCCC[C@H](CSc1ccccc1)Nc1ccc(S(=O)(=O)NC(=O)c2ccc(N3CCC(C)(C)CC3)cc2)cc1[N+](=O)[O-]	5.97
CC1(C)CCN(c2ccc(C(=O)NS(=O)(=O)c3ccc(N[C@@H](CCN4CCOCC4)CSc4ccccc4)c([N+](=O)[O-])c3)cc2)CC1	5.38
CC1(C)CCN(c2ccc(C(=O)NS(=O)(=O)c3ccc(N[C@H](CCCCN)CSc4ccccc4)c([N+](=O)[O-])c3)cc2)CC1	5.38
COc1cc(CCCN2CCOCC2)ccc1-c1ccc(C(=O)NS(=O)(=O)c2ccc(N[C@@H](CSc3ccccc3)CC(=O)N(C)C)c([N+](=O)[O-])c2)cc1	5.89
COc1cc(CCCN2CCOCC2)ccc1-c1ccc(C(=O)NS(=O)(=O)c2ccc(N[C@H](CCN(C)C)CSc3ccccc3)c([N+](=O)[O-])c2)cc1	6.40

A = CN(C)CCC[C@H](CSc1ccccc1)Nc1ccc(S(=O)(=O)NC(=O)c2ccc(N3CCC(C)(C)CC3)cc2)cc1[N+](=O)[O-]
B = CC1(C)CCN(c2ccc(C(=O)NS(=O)(=O)c3ccc(N[C@H](CCN4CCOCC4)CSc4ccccc4)c([N+](=O)[O-])c3)cc2)CC1
Task: Please state the entry with greater pEC50 among A and B . Return value: the label identifying the chosen record.
Output: B
(B: 6.43, A: 5.70)
